Target: T1, biotinylated goat anti-human kappa light chain
T1 construct: positive control of the ELISA
Assay: ELISA, positive control; also: test concentration or dose not given here
Reported optical density values are given for each entry in this list.
Quick note: give the figure in OD, leave out the unit.

- BINDER: "365_D08 (antibody, V domains shown, Group II) VH: EVQLLESGGGLVQPGGSLRLSCAASGFTFDSYSMHWVRQAPGKGLEWVSSINYNGGYTSYADSVKGRFTISRDNSKNTLYLQMNSLRAEDTAVYYCARAATWHDTHLDYWGQGTLVTVSS VL: DIQMTQSPSSLSASVGDRVTITCRASQSIITYVNWYQQKPGKAPKLLIYAATSRASGVPSRFSGSGSGTDFTLTISSLQPEDFATYYCQQSYDTPLTFGGGTKVEIK"
  optical density / OD: 3.61

**Q:** Which optical density reading was recorded for the binder 375_A11 (antibody, V domains shown, Group I) VH: EVQLLESGGGLVQPGGSLRLSCAASGFTFSDYGMHWVRQAPGKGLEWVSSINYNSGYKSYADSVKGRFTISRDNSKNTLYLQMNSLRAEDTAVYYCARAANWHDTALDYWGQGTLVTVSS VL: DIQMTQSPSSLSASVGDRVTITCRASQSIVSYLNWYQQKPGKAPKLLIYYVTNLASGVPSRFSGSGSGTDFTLTISSLQPEDFATYYCQQSYDNPLTFGGGTKVEIK ?
**A:** 3.05
